Experiment: Thermodynamic solubility of compound at pH 6.5
Type: physicochemical
Details: buffer, read-out: Therm_solubility
So basically: solubility thermodynamic at 20 µg/mL or higher? That is Satisfied. Lower than 20 µg/mL? That is Not satisfied.

Before answering, review these 5 worked examples.
1) NS(=O)(=O)c1cc(NC(=O)Cc2ccccc2)ccc1Oc1cccc(Cl)c1: Not satisfied
2) NS(=O)(=O)c1cc(NC(=O)Cc2ccccc2Cl)ccc1OCC1CCOCC1: Satisfied
3) NS(=O)(=O)c1cc(NC(=O)Cc2ccccc2Cl)ccc1Oc1ccc(-c2nccs2)cc1: Not satisfied
4) NS(=O)(=O)c1cc(NC(=O)Cc2cc(F)ccc2Cl)ccc1OCC1CCOCC1: Satisfied
5) NS(=O)(=O)c1cc(NC(=O)Cc2ccccc2Cl)ccc1Oc1cccc(Cl)c1: Not satisfied

// inclusive: solubility thermodynamic at least 20 µg/mL? input: NS(=O)(=O)c1cc(NC(=O)Cc2c(F)cccc2Cl)ccc1Oc1cccc(Cl)c1
Not satisfied
